Study target: UniProt:Q9NWZ3
Sequence (Q9NWZ3 whole entry): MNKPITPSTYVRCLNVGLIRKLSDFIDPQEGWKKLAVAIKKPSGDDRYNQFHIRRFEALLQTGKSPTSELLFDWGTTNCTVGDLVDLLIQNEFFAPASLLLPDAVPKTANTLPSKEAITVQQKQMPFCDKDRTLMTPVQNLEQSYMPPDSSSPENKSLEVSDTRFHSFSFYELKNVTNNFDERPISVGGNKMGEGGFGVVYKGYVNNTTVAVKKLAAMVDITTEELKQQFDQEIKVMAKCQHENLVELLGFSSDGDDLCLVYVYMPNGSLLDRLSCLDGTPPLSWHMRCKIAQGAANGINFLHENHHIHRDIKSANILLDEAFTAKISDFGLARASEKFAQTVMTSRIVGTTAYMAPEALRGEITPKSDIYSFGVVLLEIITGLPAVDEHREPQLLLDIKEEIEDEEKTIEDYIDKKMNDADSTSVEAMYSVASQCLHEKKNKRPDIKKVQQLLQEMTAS
Test description: IRAK4 Inhibition Assay
Assay type: biochemical
Condition details: ATP 500 μM; IRAK4 0.6 nM
Give measured IC50 for each item. Keep answers brief.
Numbers only, in nM.

CC(C)(O)[C@H]1CC[C@H](Nc2cc(-c3cnn4cc(Cl)cnc34)ncc2C(=O)NC[C@@H](F)C(C)(C)O)C1 | 2
CC(C)(O)[C@H](F)CNC(=O)c1cnc(-c2cnc3cc(Cl)cnn23)cc1NC1CCOCC1 | 2
CNC(=O)[C@H]1CC[C@H](NC(=O)c2cnc(-c3cnn4cc(C#N)cnc34)cc2NCC(C)(C)F)CC1 | 80

Proceed to the following item.
Challenge: Quick check: IC50 on UniProt:Q9NWZ3, item CC(=O)N[C@H]1CC[C@H](NC(=O)c2cnc(-c3cnc4cc(C#N)cnn34)cc2NC(C)C)CC1 ?
Response given: 16
